These data points were gathered from paper PMC2438350.

Test system: ZFL cells
EXPERIMENT_DESCRIPTION: LDH assay (released lactate dehydrogenase activity), cytotoxicity
Type: cell-based, zebrafish (Danio rerio)
CONDITION_DESCRIPTION: Danio rerio, read-out: EC50 (50% loss of cell viability), 24 h exposure, 1% FBS, mean ± SD of three experiments
pEC50: −log10 of the molar value.
MEASURED_QUANTITY: pEC50

> print(dat)
                                   molecule  measured.quantity  reading
1  C[Si](Cn1cncn1)(c1ccc(F)cc1)c1ccc(F)cc1 [Flusilazole]              pEC50     4.76
